The measurements presented in this section are drawn from BindingDB's records for doi:10.1111/cbdd.12811.

# system-under-test: Multidrug resistance-associated protein 1 (Homo sapiens, UniProt P33527)
# Sequence (P33527 whole entry): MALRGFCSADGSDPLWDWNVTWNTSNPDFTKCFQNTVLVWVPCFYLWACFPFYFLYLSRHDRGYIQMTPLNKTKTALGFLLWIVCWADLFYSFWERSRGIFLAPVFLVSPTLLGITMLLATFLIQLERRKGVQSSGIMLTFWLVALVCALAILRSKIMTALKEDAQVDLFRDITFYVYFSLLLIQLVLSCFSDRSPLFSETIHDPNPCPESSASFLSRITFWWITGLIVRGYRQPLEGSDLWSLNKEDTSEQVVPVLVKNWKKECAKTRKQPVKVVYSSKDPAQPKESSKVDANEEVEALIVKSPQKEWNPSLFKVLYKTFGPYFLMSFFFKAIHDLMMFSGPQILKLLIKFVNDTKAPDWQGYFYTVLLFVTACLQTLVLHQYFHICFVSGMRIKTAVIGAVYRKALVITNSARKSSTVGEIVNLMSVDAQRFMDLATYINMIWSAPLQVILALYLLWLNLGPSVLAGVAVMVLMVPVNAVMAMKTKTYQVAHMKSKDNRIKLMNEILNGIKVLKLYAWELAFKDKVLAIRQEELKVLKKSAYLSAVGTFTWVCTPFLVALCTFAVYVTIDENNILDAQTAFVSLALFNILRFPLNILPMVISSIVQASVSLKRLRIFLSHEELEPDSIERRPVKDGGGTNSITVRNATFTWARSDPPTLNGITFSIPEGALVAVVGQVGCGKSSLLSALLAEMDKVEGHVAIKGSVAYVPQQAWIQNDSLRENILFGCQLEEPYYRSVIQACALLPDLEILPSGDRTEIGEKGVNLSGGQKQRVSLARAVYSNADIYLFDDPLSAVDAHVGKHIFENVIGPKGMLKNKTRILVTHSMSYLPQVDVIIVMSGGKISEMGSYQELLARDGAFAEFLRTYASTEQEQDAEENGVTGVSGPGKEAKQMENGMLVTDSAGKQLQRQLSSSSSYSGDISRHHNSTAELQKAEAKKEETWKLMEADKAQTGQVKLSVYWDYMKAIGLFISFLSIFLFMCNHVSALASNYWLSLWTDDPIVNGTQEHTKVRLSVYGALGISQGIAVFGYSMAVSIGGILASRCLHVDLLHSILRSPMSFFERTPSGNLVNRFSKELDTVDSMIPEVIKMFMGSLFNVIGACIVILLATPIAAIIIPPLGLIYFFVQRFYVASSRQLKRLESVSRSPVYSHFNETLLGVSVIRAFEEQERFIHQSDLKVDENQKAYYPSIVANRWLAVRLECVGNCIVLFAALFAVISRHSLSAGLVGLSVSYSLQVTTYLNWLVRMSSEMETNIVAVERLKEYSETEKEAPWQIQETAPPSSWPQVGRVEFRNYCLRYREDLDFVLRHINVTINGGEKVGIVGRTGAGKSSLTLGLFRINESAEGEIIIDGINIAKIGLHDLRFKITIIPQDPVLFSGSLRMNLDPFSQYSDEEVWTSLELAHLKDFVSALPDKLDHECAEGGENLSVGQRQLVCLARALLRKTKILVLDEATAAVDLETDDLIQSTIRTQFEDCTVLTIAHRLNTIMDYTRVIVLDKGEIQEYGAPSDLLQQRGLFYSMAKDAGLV
# assay-protocol: Calcein-AM Assay
measurement-kind: IC50

As a guide, the following entries are already answered.
Query: Report value only: IC50, Multidrug resistance-associated protein 1 (Homo sapiens, UniProt P33527), "COc1cc(OC)c(C(=O)Nc2ccc(Br)cc2)cc1OC"
Response: > 100 µM

Query: Report value only: IC50, Multidrug resistance-associated protein 1 (Homo sapiens, UniProt P33527), "COc1cc(OC)c(C(=O)Nc2ccccc2OC)c(OC)c1"
Response: > 100 µM

Query: Report value only: IC50, Multidrug resistance-associated protein 1 (Homo sapiens, UniProt P33527), COc1ccc(C(=O)Nc2ccccc2)c(OC)c1OC [2,3,4-Trimethoxy-N-phenyl-benzamide (7)]
Response: > 100 µM

Query: Report value only: IC50, Multidrug resistance-associated protein 1 (Homo sapiens, UniProt P33527), "COc1ccc(C(=O)Nc2ccc(Br)cc2)c(OC)c1OC"
Response: > 100 µM

Query: Report value only: IC50, Multidrug resistance-associated protein 1 (Homo sapiens, UniProt P33527), "COc1ccccc1NC(=O)c1ccc(OC)c(OC)c1OC"
Response: 71 µM

Continuing:
Query: Report value only: IC50, Multidrug resistance-associated protein 1 (Homo sapiens, UniProt P33527), "COc1ccccc1NC(=O)c1cc(OC)c(OC)cc1OC"
Response: > 100 µM

Query: Report value only: IC50, Multidrug resistance-associated protein 1 (Homo sapiens, UniProt P33527), COc1cc(OC)c(C(=O)Nc2ccccc2)c(OC)c1 [2,4,6-Trimethoxy-N-phenyl-benzamide (8)]
Response: > 100 µM

Query: Report value only: IC50, Multidrug resistance-associated protein 1 (Homo sapiens, UniProt P33527), "COc1cc(OC)c(C(=O)Nc2ccc(Br)cc2)c(OC)c1"
Response: > 100 µM

Query: Report value only: IC50, Multidrug resistance-associated protein 1 (Homo sapiens, UniProt P33527), COc1cc(OC)c(C(=O)Nc2ccccc2)cc1OC [2,4,5-Trimethoxy-N-phenyl-benzamide (6)]
Response: > 100 µM

Query: Report value only: IC50, Multidrug resistance-associated protein 1 (Homo sapiens, UniProt P33527), COc1cc(C(=O)Nc2ccccc2)cc(OC)c1OC [3,4,5-trimethoxy-N-phenylbenzamide (5)]
Response: > 100 µM

Query: Report value only: IC50, Multidrug resistance-associated protein 1 (Homo sapiens, UniProt P33527), "COc1ccccc1NC(=O)c1cc(OC)c(OC)c(OC)c1"
Response: > 100 µM
